Provenance of the data: the supplement of paper PMC7877785

Item-by-item account of self-splicing fitness (ln)
assay.overview: self-splicing fitness, log relative to wild type (ln ratio); higher = more splicing; Tetrahymena group I intron in knt gene, E. coli kanamycin selection, DiMSum; sequences stand for … in CUCUCU…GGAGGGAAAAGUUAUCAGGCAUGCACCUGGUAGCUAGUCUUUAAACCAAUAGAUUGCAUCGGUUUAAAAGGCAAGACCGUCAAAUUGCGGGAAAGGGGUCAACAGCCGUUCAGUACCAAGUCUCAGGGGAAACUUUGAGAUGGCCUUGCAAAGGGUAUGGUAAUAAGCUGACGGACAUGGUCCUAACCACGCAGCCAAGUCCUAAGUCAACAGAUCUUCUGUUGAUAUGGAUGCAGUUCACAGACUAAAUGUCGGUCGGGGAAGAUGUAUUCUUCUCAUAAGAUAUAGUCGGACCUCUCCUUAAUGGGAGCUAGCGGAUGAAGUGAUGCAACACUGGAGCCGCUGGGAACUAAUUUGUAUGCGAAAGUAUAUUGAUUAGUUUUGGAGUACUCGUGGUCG;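 further: selection with 25 µg/mL kanamycin versus none on LB agar overnight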
assay.conditions: 30 °C
Please state the value as a number alone, without comment.

Please report the recorded self-splicing fitness (ln) for "UUCAAGCAAUAUUACGUAGA" .
-1.5

// query: "AACGAGCAAUAUUACGAUGG"
-3.27

====

assay.overview: self-splicing fitness, log relative to wild type (ln ratio); higher = more splicing; Tetrahymena group I intron in knt gene, E. coli kanamycin selection, DiMSum; sequences stand for … in CUCUCU…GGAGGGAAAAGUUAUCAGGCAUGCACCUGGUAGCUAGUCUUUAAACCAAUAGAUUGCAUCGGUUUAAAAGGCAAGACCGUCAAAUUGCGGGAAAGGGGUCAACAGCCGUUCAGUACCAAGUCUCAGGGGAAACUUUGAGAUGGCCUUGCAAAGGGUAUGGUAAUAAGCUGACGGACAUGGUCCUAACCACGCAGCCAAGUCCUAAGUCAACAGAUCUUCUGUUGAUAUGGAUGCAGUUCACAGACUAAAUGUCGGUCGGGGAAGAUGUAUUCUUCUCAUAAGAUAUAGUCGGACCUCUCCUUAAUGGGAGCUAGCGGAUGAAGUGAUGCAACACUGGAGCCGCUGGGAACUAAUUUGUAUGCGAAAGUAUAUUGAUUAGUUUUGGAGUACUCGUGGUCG
assay.conditions: 30 °C
value.kind: self-splicing fitness (ln)
Respond numerically, and do not add a unit to the figure.

Solved cases (3 shown):
# residue.string, self-splicing fitness (ln)
rows = [
    ("UCGCAGCAAUAUUACGACGA", -1.67),
    ("AGACAGCAAUAUUACGGGCG", -0.665),
    ("UACCAGCAAUAUUACGUUCC", -2.79),
]

Given the sequence "CACGAGCAAUAUUACGGACA" , what is its reported self-splicing fitness (ln)?
-3.03

Then what about the sequence "GUAAAGCAAUAUUACGUCAU" ?
-0.555

Queued: "AGAUAGCAAUAUUACGCCUA"
-1.21

And the next one, "GAACAGCAAUAUUACGCCCG" ?
-2.49

Please do the same for "GACGAGCAAUAUUACGACUU" as well.
-0.586

Ok, now "CGUCAGCAAUAUUACGGCCC"
-1.75

Another sequence: "UACUAGCAAUAUUACGAUGG"
-0.657

Thanks! And "AAAGAGCAAUAUUACGCUCC" ?
-2.57

Same question for "CAGUAGCAAUAUUACGAACG" please.
-0.0483

And the next one, "UGAUAGCAAUAUUACGAUGC" ?
-3.93

"ACUUAGCAAUAUUACGUUCU" ?
-1.28
